Each entry below carries its recorded TGI.
# Test system: SW-620 colon
# Test method notes: NCI tumour cell line growth inhibition, 48 h
Measurement type: TGI

>>> endpoint_result("Cc1cc(-c2ccc(C3C(C#N)=C(N)Oc4c3c(=O)oc3ccccc43)cc2)cnc1F (stereo not given)")
"> 100 µM"
>>> endpoint_result("Cc1cc(C)c(-n2c(-c3ccccc3)cs/c2=N\\N=C2C=C(C(C)(C)C)C(=O)C(C(C)(C)C)=C2)c(C)c1")
"> 100 µM"
>>> endpoint_result("O=C(C1CC1)N1CC[C@@H](Cc2n[nH]c(=O)n2-c2ccc(-c3ccc4occc4c3)cc2)C1")
"> 100 µM"
>>> endpoint_result("Cc1nc(Nc2ccc(Cl)cc2)sc1C(=O)NNC(=O)C(=O)NN")
"32.6 µM"
>>> endpoint_result("Nc1c(C(=O)c2cccc(-c3ccncc3)c2)cnn1-c1ccc(F)cc1")
"> 25 µM"
>>> endpoint_result("N#Cc1nc(/C=C/c2nc(C#N)c(N)o2)oc1N")
"> 10 µM"
>>> endpoint_result("CC1(C)CC(/C=C2/OC(=O)c3ccccc32)=C(C(N)=O)C(=O)O1")
"> 100 µM"
>>> endpoint_result("COc1c(O)ccc(C2=Cc3ccc(O)cc3OC2)c1OC")
"> 100 µM"
>>> endpoint_result("COc1ccc(NC(=O)CC(=O)NN2C(=O)/C(=C/c3ccc(N(CCC#N)CCC#N)cc3C)N=C2/C=C\\c2ccccc2)cc1")
"> 100 µM"
>>> endpoint_result("CCO/C(O)=C(/C(=N)N1CCOCC1)C(=O)Nc1cccc(Cl)c1")
"> 100 µM"

----------
# System: COLO 205 colon
# Test method notes: NCI tumour cell line growth inhibition, 48 h; in the data active means GI50 below about 0.43 µM; inactive means the rest
Possible outcomes: 1 (yes) for active, 0 (no) for inactive

>>> label("COC(=O)CCC1=C(C)C(C)=N/C1=C\\c1[nH]c(-c2ccc[nH]2)cc1OC")
"1 (yes)"
>>> label("Cc1ccc(/C(=C/C=C(/C#N)C(N)=O)Sc2ncnn2C)cc1")
"0 (no)"
>>> label("Nc1c(C(=O)c2cccc(-c3ccncc3)c2)cnn1-c1ccc(F)cc1")
"0 (no)"
>>> label("NC(=O)c1cc(Cl)ccc1NC(=O)COc1ccccc1")
"0 (no)"
>>> label("COC(=O)[C@]12CC[C@@H](C(=O)/C=C/c3cccnc3)[C@@H]1[C@H]1CC[C@@H]3[C@@]4(C)C/C(=C/c5cccnc5)C(=O)C(C)(C)[C@@H]4CC[C@@]3(C)[C@]1(C)CC2")
"1 (yes)"
>>> label("O=C(Cc1ccc(OCc2ccccc2)cc1)NCc1ccc2c(c1)OCO2")
"0 (no)"
>>> label("CCN1CCN(Cc2ccc(NC(=O)c3nc4ccc5[nH]ncc5c4c4c3CCCC4)cc2C(F)(F)F)CC1")
"0 (no)"
>>> label("CS(=O)(=O)OCCn1c2c(c3c(O)cccc31)C(=O)c1ccccc1-2")
"0 (no)"
>>> label("C=C1C(=O)O[C@H]2[C@H]1CC/C(COC(=O)NCc1c[nH]c3ccc(Br)cc13)=C\\CC[C@@]1(C)O[C@@H]21")
"0 (no)"
>>> label("C/C(=C\\C(=N\\N=C(N)N)c1ccc(Cl)cc1)c1ccc(Cl)cc1")
"1 (yes)"
>>> label("CC(C)=C[C@@H]1C[C@H](C)[C@H]2CC[C@H](C)c3c(O)c(OC4OCC(O)C(O)C4O)c(C)c1c32 (stereo partly drawn)")
"0 (no)"
>>> label("Cc1oc2nc[nH]c(=O)c2c1C(=O)/C=C/c1ccc(Br)cc1")
"0 (no)"
>>> label("CN(C)c1ccc(N=Nc2ccc(Br)cn2)c(O)c1")
"1 (yes)"

----------
# System: A549 NSCLC
# Test method notes: NCI tumour cell line growth inhibition, 48 h
Each entry below carries its recorded TGI.
Measurement type: TGI

>>> endpoint_result("CC(=O)OC(OC(C)=O)c1ncccc1C(=O)OC(C)C")
"> 100 µM"
>>> endpoint_result("Cc1cn(C2OC(CO)C(O)C2O)c(=O)[nH]c1=O (stereo not drawn)")
"> 1000 µM"
>>> endpoint_result("COc1ccc(N2C(=O)C3c4[nH]c5c(C)cccc5c4C4CCC(c5ccccc5)CC4C3C2=O)cc1 (stereo not drawn)")
"24.2 µM"
>>> endpoint_result("C/C1=C\\CC[C@@]2(C)O[C@@H]2C[C@@H]2[C@H](C/C(C)=C/CC1)OC(=O)C21CC1")
"> 100 µM"
>>> endpoint_result("CCc1cccc(C)c1NC(=O)CCc1nnc(SC)o1")
"> 100 µM"
>>> endpoint_result("O=C(O)CCC(=O)N1C/C(=C\\c2ccccc2)C(=O)/C(=C/c2ccccc2)C1")
"34.5 µM"
>>> endpoint_result("COC(=O)[C@@H](C)C[C@H](Cc1ccccc1)NC(=O)c1nc([C@@H](C[C@H](C(C)C)N(C)C(=O)[C@@H](NC(=O)[C@H]2CCCCN2C)C(C)C)OC(C)=O)sc1C(C)C")
"15.7 µM"
>>> endpoint_result("O=Cc1cn(CCCCCn2cc(C=O)c3ccccc32)c2ccccc12")
"> 100 µM"

----------
# Test system: HOP-18 NSCLC
# Test method notes: NCI tumour cell line growth inhibition, 48 h
Measurement type: TGI

>>> endpoint_result("CCOC(=O)/C=C(\\C)c1ccc(Cl)cc1")
"> 100 µM"
>>> endpoint_result("Cc1ccc(C2=C(c3ccccc3)C(=O)C(c3ccccc3)=C2c2ccc(C)cc2)cc1")
"> 100 µM"
>>> endpoint_result("COc1cc(Nc2cnc3ccc(N)cc3n2)cc(OC)c1OC")
"> 100 µM"
>>> endpoint_result("C/C(=C1/N=C(c2cc([N+](=O)[O-])ccc2Cl)N(c2ccc(Br)cc2)C1=O)c1cc2ccccc2oc1=O")
"> 100 µM"
>>> endpoint_result("Cc1ccc2cc3cccc(C(=O)NCCN(C)C)c3nc2c1")
"7.36 µM"
>>> endpoint_result("COc1cc2c3c(c1OC)-c1ccccc1C(C(O)c1ccccc1)C3N(C)CC2 (centres undefined)")
"> 100 µM"
>>> endpoint_result("O=C1CC2C=CC1C2CO (centres undefined)")
"> 100 µM"
>>> endpoint_result("C#CCN(Cc1ccc2nc(-c3ccccc3)c(Cl)nc2c1)c1cc(OC)c(OC)c(OC)c1")
"> 100 µM"
>>> endpoint_result("CC/C=C/c1cc2c(c3[nH]ccc13)[C@@H](C)CC2C (some centres undefined) (tested in a mixture with another compound)")
"26.5 µM"
>>> endpoint_result("CO[C@H]1C[C@@H]2CC[C@@H](C)[C@@](O)(O2)C(=O)C(=O)N2CCCC[C@H]2C(=O)O[C@H]([C@H](C)C[C@@H]2CC[C@@H](O)[C@H](OC)C2)CC(=O)[C@H](C)C=C(C)[C@@H](O)[C@@H](OC)C(=O)[C@H](C)C[C@H](C)/C=C/C=C/C=C1C")
"133 µM"
>>> endpoint_result("C/C=C/CC(S(=O)(=O)c1ccccc1)S(=O)(=O)c1ccccc1")
"> 100 µM"
>>> endpoint_result("COC(=O)CC(=O)OC")
"> 100 µM"
>>> endpoint_result("COC(=O)C12OCC34C(CC5C(C)=C(O)C(=O)CC5(C)C3C(O)C1O)OC(=O)C(OC(=O)C=C(C)C)C24 (centres undefined)")
"> 500 µM"
>>> endpoint_result("Cc1nc(Nc2ccc(Cl)cc2)sc1C(=O)NNC(=O)C(=O)NN")
"37.1 µM"

----------
# Tested on: MALME-3M melanoma
# Test method notes: NCI tumour cell line growth inhibition, 48 h
Measurement type: TGI (µM)

>>> endpoint_result("O=[N+]([O-])c1ccc2c3c1[C@H]1O[C@H]1c1cccc(c1-3)[C@@H]1O[C@H]21")
4.64
>>> endpoint_result("O=C(Nc1ccc(-n2ccc3c(NC(=O)c4ccccc4)ncnc32)cc1)c1ccc(Cl)c(C(F)(F)F)c1")
21.2
>>> endpoint_result("C=C1C(=O)O[C@H]2[C@H]1CC/C(COC(=O)NCc1c[nH]c3ccc(Br)cc13)=C\\CC[C@@]1(C)O[C@@H]21")
3.53
>>> endpoint_result("COC(=O)[C@@H](C)C[C@H](Cc1ccccc1)NC(=O)c1nc([C@@H](C[C@H](C(C)C)N(C)C(=O)[C@@H](NC(=O)[C@H]2CCCCN2C)C(C)C)OC(C)=O)sc1C(C)C")
5.81

----------
# Test system: NCI-H226 lung
# Test method notes: NCI tumour cell line growth inhibition, 48 h
Measurement type: TGI

>>> endpoint_result("CCCCc1ccc(N2C(=O)c3cc([N+](=O)[O-])cnc3S2(=O)=O)cc1")
"> 100 µM"
>>> endpoint_result("COC(=O)CCC1=C(C)C(C)=N/C1=C\\c1[nH]c(-c2ccc[nH]2)cc1OC")
"1.8 µM"
>>> endpoint_result("N#Cc1c(N)c2c(c(-c3ccccc3)c1-c1ccccc1)C(=O)N(NC(=S)Nc1ccccc1)C2=O")
"> 100 µM"
>>> endpoint_result("COc1ccc(NC=O)c(C(=O)CCNC(C)=O)c1")
"> 100 µM"
>>> endpoint_result("N#CCCN(CCC#N)c1ccc(/C=C2\\N=C(c3cc([N+](=O)[O-])ccc3Cl)N(S(=O)(=O)c3ccccc3)C2=O)cc1")
"> 100 µM"

src = PubChem BioAssay (NCI)
